- tested on: human VDR (Homo sapiens)
- Construct: expressed in transfected cells; host or cells: HOS cells (human osteosarcoma, ATCC), pcDNA3 expression vector, Lipofectamine 2000
- Sequence (P11473 whole entry): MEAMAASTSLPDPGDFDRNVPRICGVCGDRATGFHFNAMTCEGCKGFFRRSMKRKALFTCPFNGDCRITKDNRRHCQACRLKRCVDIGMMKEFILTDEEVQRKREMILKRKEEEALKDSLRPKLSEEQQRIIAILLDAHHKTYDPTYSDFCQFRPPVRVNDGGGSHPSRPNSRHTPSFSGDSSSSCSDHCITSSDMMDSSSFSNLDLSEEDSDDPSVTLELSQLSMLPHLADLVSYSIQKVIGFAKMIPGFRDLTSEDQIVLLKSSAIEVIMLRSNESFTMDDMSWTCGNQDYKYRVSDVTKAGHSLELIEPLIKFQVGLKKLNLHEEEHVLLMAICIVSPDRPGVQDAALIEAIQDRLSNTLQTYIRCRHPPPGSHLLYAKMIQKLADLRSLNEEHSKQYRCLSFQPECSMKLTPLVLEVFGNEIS
- procedure text: Vitamin D3 receptor-antagonist activity: human osteocalcin promoter luciferase reporter in HOS cells transfected with human VDR and human RXR
- Format: cell-based
- measurement parameters: IC50 of test compound with respect to IC50 of TEI-9647 in each experiment
measured quantity: Antagonist specific activity against TEI-9647 (%)

C=C1/C(=C\C=C2/CCC[C@]3(C)[C@@H]([C@H](C)CC4CC(C)(O)C(=O)N4Cc4cc(OCC)cc(OCC)c4)CC[C@@H]23)C[C@@H](O)[C@H](OCCCO)[C@@H]1O (stereo partly drawn) [Compound No. 43c] ... 9.8%

Task item: Fill in the blank: the reported Antagonist specific activity against TEI-9647 (%) of C=C1/C(=C\C=C2/CCC[C@]3(C)[C@@H]([C@H](C)C[C@H]4C[C@](C)(O)C(=O)N4CCc4ccccc4)CC[C@@H]23)C[C@@H](O)[C@H](OCCCO)[C@@H]1O [Compound No. 13a] is ____.
Reply: 29.9%

Task item: Same question, C=C1/C(=C\C=C2/CCC[C@]3(C)[C@@H]([C@H](C)CC4CC(C)(O)C(=O)N4CCc4ccccc4)CC[C@@H]23)C[C@@H](O)[C@H](C)[C@@H]1O (stereo partly drawn) [Compound No. 11a] this time
Reply: 90.5%
